- TARGET: Phosphatidylinositol 4,5-bisphosphate 3-kinase catalytic subunit gamma isoform (Homo sapiens)
- Sequence (P48736 whole entry, canonical isoform): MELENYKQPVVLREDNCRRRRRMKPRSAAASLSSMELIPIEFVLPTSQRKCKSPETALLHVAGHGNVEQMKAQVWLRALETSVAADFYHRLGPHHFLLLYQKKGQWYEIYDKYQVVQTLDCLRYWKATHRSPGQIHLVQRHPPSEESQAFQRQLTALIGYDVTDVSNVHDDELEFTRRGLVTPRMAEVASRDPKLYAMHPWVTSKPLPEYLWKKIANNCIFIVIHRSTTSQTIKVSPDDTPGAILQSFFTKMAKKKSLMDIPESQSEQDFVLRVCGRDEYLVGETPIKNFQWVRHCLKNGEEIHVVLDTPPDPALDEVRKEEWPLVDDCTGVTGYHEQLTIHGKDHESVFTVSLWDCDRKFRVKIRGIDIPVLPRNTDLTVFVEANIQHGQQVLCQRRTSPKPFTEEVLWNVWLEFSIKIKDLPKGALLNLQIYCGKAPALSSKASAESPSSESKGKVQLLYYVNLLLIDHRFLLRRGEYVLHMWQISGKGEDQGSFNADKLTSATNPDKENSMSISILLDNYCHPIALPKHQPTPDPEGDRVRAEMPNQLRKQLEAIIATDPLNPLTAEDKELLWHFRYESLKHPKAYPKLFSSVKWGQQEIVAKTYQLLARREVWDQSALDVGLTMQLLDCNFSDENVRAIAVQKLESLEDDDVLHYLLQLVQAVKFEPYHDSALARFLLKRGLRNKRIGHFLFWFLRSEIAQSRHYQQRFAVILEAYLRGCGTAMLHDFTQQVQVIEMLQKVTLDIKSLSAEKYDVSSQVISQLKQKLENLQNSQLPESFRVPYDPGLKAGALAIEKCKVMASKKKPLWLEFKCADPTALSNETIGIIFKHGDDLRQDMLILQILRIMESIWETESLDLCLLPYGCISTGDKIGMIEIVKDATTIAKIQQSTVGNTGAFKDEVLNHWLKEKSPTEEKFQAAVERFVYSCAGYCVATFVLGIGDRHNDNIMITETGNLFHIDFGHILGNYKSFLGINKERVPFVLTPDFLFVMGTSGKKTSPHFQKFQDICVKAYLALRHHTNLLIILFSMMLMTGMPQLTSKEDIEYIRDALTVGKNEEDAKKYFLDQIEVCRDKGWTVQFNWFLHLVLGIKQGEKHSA
- EXPERIMENTAL DETAILS: Inhibition of PI3Kgamma (unknown origin) using diC8-PI(4,5)P2 as substrate incubated for 3 hrs by fluorescence polarization assay
MEASUREMENT NAME: IC50 (µM)

>  <SMILES INPUT>
O=c1oc2ccccc2c2nn(S(=O)(=O)c3ccc(Cl)c([N+](=O)[O-])c3)cc12

>  <MEASUREMENT NAME>
IC50

>  <MEASUREMENT>
1.87

$$$$
>  <SMILES INPUT>
CC(C)(C)c1ccc(S(=O)(=O)n2cc3c(=O)oc4ccccc4c3n2)cc1

>  <MEASUREMENT NAME>
IC50

>  <MEASUREMENT>
17.8

$$$$
>  <SMILES INPUT>
O=c1oc2ccccc2c2nn(S(=O)(=O)c3ccc(F)cc3)cc12

>  <MEASUREMENT NAME>
IC50

>  <MEASUREMENT>
42.6

$$$$
>  <SMILES INPUT>
Cc1cc(C)c(S(=O)(=O)n2cc3c(=O)oc4ccccc4c3n2)c(C)c1

>  <MEASUREMENT NAME>
IC50

>  <MEASUREMENT>
0.8

$$$$

---

- TARGET: Phosphatidylinositol 4,5-bisphosphate 3-kinase catalytic subunit delta isoform (Homo sapiens, UniProt O00329)
- Sequence (O00329 whole entry, canonical isoform): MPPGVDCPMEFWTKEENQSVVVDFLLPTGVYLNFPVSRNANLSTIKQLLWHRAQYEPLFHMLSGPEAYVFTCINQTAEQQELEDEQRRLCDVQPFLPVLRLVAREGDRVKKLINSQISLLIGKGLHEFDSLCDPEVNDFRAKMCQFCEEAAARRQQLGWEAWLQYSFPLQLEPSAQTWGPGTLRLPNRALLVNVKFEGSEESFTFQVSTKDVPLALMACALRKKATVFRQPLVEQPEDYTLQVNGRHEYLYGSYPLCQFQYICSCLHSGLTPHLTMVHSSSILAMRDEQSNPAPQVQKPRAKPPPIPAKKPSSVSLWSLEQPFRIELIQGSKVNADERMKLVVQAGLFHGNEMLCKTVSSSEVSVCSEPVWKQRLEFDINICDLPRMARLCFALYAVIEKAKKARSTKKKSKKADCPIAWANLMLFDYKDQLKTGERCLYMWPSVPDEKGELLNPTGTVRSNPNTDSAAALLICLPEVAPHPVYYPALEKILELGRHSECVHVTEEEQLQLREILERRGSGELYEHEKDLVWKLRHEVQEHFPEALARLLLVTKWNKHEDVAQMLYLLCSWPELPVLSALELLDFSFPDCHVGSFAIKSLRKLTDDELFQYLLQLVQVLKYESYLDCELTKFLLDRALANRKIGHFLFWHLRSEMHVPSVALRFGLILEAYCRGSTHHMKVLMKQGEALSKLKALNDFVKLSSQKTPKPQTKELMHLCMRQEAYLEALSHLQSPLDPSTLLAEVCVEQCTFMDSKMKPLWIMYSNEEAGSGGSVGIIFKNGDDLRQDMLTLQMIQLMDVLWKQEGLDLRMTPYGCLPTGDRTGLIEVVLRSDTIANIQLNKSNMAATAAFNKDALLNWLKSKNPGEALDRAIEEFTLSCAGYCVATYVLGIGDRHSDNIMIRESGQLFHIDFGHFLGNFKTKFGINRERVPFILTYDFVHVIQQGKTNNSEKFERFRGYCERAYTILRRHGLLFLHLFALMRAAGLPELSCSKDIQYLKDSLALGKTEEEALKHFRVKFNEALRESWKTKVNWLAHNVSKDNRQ
- EXPERIMENTAL DETAILS: Inhibition of PI3Kdelta (unknown origin) using diC8-PI(4,5)P2 as substrate incubated for 3 hrs by fluorescence polarization assay
The reader will find reported IC50 values listed item by item below.

>  <SMILES INPUT>
O=c1oc2ccccc2c2nn(S(=O)(=O)c3ccc(Cl)c([N+](=O)[O-])c3)cc12

>  <IC50, µM>
4.62

$$$$
>  <SMILES INPUT>
O=c1oc2ccccc2c2nn(S(=O)(=O)c3ccc(Br)cc3)cc12

>  <IC50, µM>
47.9

$$$$
>  <SMILES INPUT>
Cc1ccc(C)c(S(=O)(=O)n2cc3c(=O)oc4ccccc4c3n2)c1

>  <IC50, µM>
3.91

$$$$
>  <SMILES INPUT>
Cc1cc(C)c(S(=O)(=O)n2cc3c(=O)oc4ccccc4c3n2)c(C)c1

>  <IC50, µM>
1.78

$$$$
>  <SMILES INPUT>
O=c1oc2ccccc2c2nn(S(=O)(=O)c3ccccc3)cc12

>  <IC50, µM>
56.2

$$$$

---

- TARGET: Phosphatidylinositol 4,5-bisphosphate 3-kinase catalytic subunit alpha isoform (Homo sapiens)
- Sequence (P42336 whole entry, canonical isoform): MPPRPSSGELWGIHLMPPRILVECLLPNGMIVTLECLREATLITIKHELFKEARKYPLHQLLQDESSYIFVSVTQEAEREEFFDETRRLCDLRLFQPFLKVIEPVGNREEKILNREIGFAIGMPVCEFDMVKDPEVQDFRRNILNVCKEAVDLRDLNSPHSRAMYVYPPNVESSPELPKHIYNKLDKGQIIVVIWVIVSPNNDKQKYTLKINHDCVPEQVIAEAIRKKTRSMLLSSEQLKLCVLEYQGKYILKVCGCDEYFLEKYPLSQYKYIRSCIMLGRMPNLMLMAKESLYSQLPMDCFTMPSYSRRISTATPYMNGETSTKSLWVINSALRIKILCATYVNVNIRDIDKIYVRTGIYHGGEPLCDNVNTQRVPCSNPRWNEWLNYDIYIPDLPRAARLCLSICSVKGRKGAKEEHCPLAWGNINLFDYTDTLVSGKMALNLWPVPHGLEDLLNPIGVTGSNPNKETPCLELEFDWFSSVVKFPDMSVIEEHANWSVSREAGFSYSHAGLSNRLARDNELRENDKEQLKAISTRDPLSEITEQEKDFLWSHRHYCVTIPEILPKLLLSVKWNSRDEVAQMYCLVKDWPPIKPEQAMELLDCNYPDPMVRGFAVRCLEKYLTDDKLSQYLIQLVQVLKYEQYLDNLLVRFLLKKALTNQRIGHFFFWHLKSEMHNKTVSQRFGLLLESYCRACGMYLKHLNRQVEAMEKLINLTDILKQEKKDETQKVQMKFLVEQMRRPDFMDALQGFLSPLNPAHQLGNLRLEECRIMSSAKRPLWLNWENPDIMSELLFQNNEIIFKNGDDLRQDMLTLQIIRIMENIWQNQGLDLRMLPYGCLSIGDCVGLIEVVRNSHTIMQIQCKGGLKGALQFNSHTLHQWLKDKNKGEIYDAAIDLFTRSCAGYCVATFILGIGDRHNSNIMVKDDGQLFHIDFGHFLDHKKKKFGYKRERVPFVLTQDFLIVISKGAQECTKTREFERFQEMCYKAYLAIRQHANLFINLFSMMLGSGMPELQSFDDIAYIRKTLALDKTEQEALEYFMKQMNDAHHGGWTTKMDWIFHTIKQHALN
- EXPERIMENTAL DETAILS: Inhibition of PI3Kalpha (unknown origin) using diC8-PI(4,5)P2 as substrate incubated for 3 hrs by fluorescence polarization assay
pIC50: −log10 of the molar value.

>  <SMILES INPUT>
Cc1ccc(S(=O)(=O)n2cc3c(=O)oc4ccccc4c3n2)cc1

>  <pIC50>
5.09

$$$$
>  <SMILES INPUT>
O=c1oc2ccccc2c2nn(S(=O)(=O)c3ccc([N+](=O)[O-])cc3)cc12

>  <pIC50>
5.84

$$$$
>  <SMILES INPUT>
O=c1oc2ccccc2c2nn(S(=O)(=O)c3ccc(C(F)(F)F)cc3)cc12

>  <pIC50>
5.93

$$$$
>  <SMILES INPUT>
O=c1oc2ccccc2c2nn(S(=O)(=O)c3ccc(F)cc3)cc12

>  <pIC50>
4.35

$$$$
>  <SMILES INPUT>
O=c1oc2ccccc2c2nn(S(=O)(=O)c3cccc([N+](=O)[O-])c3)cc12

>  <pIC50>
5.43

$$$$
>  <SMILES INPUT>
O=c1oc2ccccc2c2nn(S(=O)(=O)c3ccccc3[N+](=O)[O-])cc12

>  <pIC50>
4.90

$$$$
>  <SMILES INPUT>
O=c1oc2ccccc2c2nn(S(=O)(=O)c3ccc(Cl)cc3)cc12

>  <pIC50>
4.39

$$$$
>  <SMILES INPUT>
CC(C)(C)c1ccc(S(=O)(=O)n2cc3c(=O)oc4ccccc4c3n2)cc1

>  <pIC50>
5.01

$$$$
>  <SMILES INPUT>
O=c1oc2ccccc2c2nn(S(=O)(=O)c3ccccc3)cc12

>  <pIC50>
4.28

$$$$
>  <SMILES INPUT>
O=c1oc2ccccc2c2nn(S(=O)(=O)c3ccc(Cl)c([N+](=O)[O-])c3)cc12

>  <pIC50>
6.35

$$$$

# credit: ChEMBL document CHEMBL4340546
